Test system: MFE-280 (Endometrial Carcinoma);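 note: after 72 h of two-drug dosing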
Test summary: Bliss excess, mean over the matrix (fraction); higher = more synergy
Label rule met for high-side Bliss excess (at or above -0.009) and rule not met for low-side Bliss excess (below it).

- NC1(C(=O)N[C@@H](CCO)c2ccc(Cl)cc2)CCN(c2ncnc3[nH]ccc23)CC1 [Capivasertib] + C[C@@H]1COCCN1C2=NC(=NC(=C2)C3(CC3)[S@](=N)(=O)C)C4=C5C=CNC5=NC=C4 [AZD6738] (first compound max 10 µM, 7x7, partner max 10 µM): rule not met
- N#Cc1cnc(Nc2cc(NC[C@H]3CNCCO3)c(C(F)(F)F)cn2)cn1 [SRA737] + O=c1[nH]cc(F)c(=O)[nH]1 [5-Fluorouracil] (first compound max 10 µM, 7x7, partner max 20 µM): rule not met
- C=CCn1c(=O)c2cnc(Nc3ccc(N4CCN(C)CC4)cc3)nc2n1-c1cccc(C(C)(C)O)n1 [AZD1775] + Nc1ccn([C@@H]2O[C@H](CO)[C@@H](O)C2(F)F)c(=O)n1 [Gemcitabine] (first compound max 1 µM, partner max 0.3 µM): rule not met
- COc1nnc2ccc(N3CCC(c4ccc(OCCN5CCN(C)C(=O)[C@H]5C)cc4)CC3)nn12 [AZD5153] + CC1(C)CCC(CN2CCN(c3ccc(C(=O)NS(=O)(=O)c4ccc(NCC5CCOCC5)c([N+](=O)[O-])c4)c(Oc4cnc5[nH]ccc5c4)c3)CC2)=C(c2ccc(Cl)cc2)C1 [Venetoclax] (first compound max 1 µM, 7x7, partner max 1 µM): rule not met
- CC(=O)Nc1cccc(-n2c(=O)n(C3CC3)c(=O)c3c(Nc4ccc(I)cc4F)n(C)c(=O)c(C)c32)c1 [Trametinib] + Cc1nc(-c2cn3c(n2)-c2ccc(-c4cnn(C(C)(C)C(N)=O)c4)cc2OCC3)n(C(C)C)n1 [Taselisib] (first compound max 1 µM, 7x7, partner max 10 µM): rule met
- COc1nnc2ccc(N3CCC(c4ccc(OCCN5CCN(C)C(=O)[C@H]5C)cc4)CC3)nn12 [AZD5153] + Cn1cnc2c(F)c(Nc3ccc(Br)cc3Cl)c(C(=O)NOCCO)cc21 [Selumetinib] (first compound max 1 µM, 7x7, partner max 10 µM): rule met
